Listing of entries alongside the reported inhibition at 100 µM.
# Study Target: FBW7/Skp1 (Homo sapiens, UniProt Q969H0)
# Sequence (Q969H0 whole entry, species assumed): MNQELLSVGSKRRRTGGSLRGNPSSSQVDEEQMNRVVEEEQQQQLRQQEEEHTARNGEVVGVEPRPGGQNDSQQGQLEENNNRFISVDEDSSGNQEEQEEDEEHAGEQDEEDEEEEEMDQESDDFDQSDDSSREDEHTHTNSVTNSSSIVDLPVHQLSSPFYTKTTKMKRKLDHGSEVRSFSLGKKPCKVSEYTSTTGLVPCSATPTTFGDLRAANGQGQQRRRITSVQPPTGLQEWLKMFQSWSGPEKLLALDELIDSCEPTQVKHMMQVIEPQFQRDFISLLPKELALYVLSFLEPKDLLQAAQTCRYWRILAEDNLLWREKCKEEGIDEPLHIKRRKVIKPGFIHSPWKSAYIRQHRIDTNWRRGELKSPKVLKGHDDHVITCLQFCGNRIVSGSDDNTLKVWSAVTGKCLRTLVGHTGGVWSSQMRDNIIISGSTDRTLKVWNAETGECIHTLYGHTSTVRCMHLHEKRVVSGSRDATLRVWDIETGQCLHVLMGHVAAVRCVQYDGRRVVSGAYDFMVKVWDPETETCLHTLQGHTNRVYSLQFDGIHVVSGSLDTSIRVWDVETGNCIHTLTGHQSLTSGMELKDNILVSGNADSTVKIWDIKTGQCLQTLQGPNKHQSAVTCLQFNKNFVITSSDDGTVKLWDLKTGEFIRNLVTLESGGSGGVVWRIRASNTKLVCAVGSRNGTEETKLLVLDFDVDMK
# Sequence (P63208 whole entry partner, species assumed): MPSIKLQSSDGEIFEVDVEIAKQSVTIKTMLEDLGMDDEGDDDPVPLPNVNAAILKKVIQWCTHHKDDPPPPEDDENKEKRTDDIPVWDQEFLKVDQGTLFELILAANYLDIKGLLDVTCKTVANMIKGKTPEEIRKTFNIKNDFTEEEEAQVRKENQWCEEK
# Sequence (Q13616 whole entry partner, species assumed): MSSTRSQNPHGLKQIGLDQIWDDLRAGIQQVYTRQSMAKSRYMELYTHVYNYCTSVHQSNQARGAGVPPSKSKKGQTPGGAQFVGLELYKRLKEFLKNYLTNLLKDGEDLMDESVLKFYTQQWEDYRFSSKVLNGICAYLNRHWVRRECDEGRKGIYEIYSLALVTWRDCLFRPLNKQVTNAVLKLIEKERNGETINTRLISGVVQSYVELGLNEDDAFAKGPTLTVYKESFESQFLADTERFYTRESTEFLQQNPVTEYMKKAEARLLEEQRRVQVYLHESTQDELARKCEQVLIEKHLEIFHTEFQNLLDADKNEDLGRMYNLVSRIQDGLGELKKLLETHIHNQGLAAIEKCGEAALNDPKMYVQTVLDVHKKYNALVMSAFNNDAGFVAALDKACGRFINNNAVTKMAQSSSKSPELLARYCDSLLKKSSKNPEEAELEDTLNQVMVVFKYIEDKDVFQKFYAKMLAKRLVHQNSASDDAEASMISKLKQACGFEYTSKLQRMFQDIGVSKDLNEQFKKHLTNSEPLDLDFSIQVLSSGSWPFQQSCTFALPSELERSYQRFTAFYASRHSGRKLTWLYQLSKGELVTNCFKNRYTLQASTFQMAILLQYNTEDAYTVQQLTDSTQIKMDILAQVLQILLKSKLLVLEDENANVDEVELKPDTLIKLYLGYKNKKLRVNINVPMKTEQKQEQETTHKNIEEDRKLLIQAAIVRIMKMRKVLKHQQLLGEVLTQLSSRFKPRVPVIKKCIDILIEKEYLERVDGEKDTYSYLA
# Sequence (P62877 whole entry partner, species assumed): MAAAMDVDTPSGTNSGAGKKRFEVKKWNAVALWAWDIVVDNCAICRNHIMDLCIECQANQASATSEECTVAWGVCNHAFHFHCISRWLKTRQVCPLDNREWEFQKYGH
# Procedure Summary: Selectivity assay vs other E3s: Fbw7
# Type: biochemical
# Experimental Context: 100 μM, value in brackets; read-out: % Inhibition Fbw7 @ (100 μM)
Starred links: 1 amine or outer side, 2 acyl side, 3 side chain; linkers in the order of their positions; H or OH if unused. Non-standard residues stand in square brackets, D forms with d. Residues, ends and D or L forms follow the SMILES beside them. Phe(3-F) = N[C@@H](Cc1cccc(F)c1)C(=O)O; 1Nal = N[C@@H](Cc1cccc2ccccc12)C(=O)O; Suc = O=C(CCC(=O)[*:2])[*:1]

NC(=O)[C@H](CCC(=O)O)NC(=O)[C@H](Cc1cccc2ccccc12)NC(=O)[C@H](Cc1cccc(F)c1)NC(=O)CNC(=O)[C@H](CCC(=O)O)NC(=O)CCC(=O)O [UBP010, Suc-EGF(3F)1NalE-NH2] (Suc-EG[Phe(3-F)][1Nal]E-NH2)    0%

For the next question, use this molecule.
Name the recorded inhibition at 100 µM of NC(=O)[C@H](CCC(=O)O)NC(=O)[C@H](Cc1cccc2ccccc12)NC(=O)[C@H](Cc1ccc(O)cc1)NC(=O)CNC(=O)[C@H](CCC(=O)O)NC(=O)CCC(=O)O [UBP009, Suc-EGY1NalE-NH2] (Suc-EGY[1Nal]E-NH2) , assay system FBW7/Skp1 (Homo sapiens, UniProt Q969H0).
5%

* * *

# Study Target: FBW7/Skp1 (Homo sapiens)
# Procedure Summary: Selectivity assay vs other E3s: Fbw7
# Assay type: biochemical
# Experimental Context: read-out: % Inhibition Fbw7 @ 10 μM
Starred links: 1 amine or outer side, 2 acyl side, 3 side chain; linkers in the order of their positions; H or OH if unused. Non-standard residues stand in square brackets, D forms with d. Residues, ends and D or L forms follow the SMILES beside them. *: point of attachment. Benzenesulfonyl(4-OMe) = COc1ccc(S(=O)(=O)*)cc1; Phe(3-Cl) = N[C@@H](Cc1cccc(Cl)c1)C(=O)O; Phe(3-F) = N[C@@H](Cc1cccc(F)c1)C(=O)O; NMeE = CN[C@@H](CCC(=O)O)C(=O)O; Suc = O=C(CCC(=O)[*:2])[*:1]; Tos = Cc1ccc(S(=O)(=O)*)cc1
Record t whenever inhibition at 10 µM is at 3% or higher; record f when lower.

NC(=O)[C@H](CCC(=O)O)NC(=O)[C@H](Cc1ccccc1)NC(=O)[C@H](Cc1ccc(O)cc1)NC(=O)CNC(=O)[C@H](CCC(=O)O)NC(=O)CCC(=O)O [UBP007, Suc-EGYFE-NH2] (Suc-EGYFE-NH2)    f
COc1ccc(S(=O)(=O)N[C@@H](CC(=O)O)C(=O)N[C@@H](CCC(=O)O)C(=O)NCC(=O)N[C@@H](Cc2cccc(F)c2)C(=O)N[C@@H](Cc2c[nH]c3ccccc23)C(=O)N[C@@H](CCC(=O)O)C(N)=O)cc1 [4-(MeO)-PhSO2-DEGF(3F)WE-NH2] ({Benzenesulfonyl(4-OMe)}-DEG[Phe(3-F)]WE-NH2)    f
NC(=O)CC[C@H](NC(=O)CCC(=O)O)C(=O)NCC(=O)N[C@@H](Cc1cccc(F)c1)C(=O)N[C@@H](Cc1ccc([N+](=O)[O-])cc1)C(=O)N[C@@H](CCC(=O)O)C(N)=O [UBP012, Suc-QGF(3F)F(4NO2)E-NH2]    f
Cc1ccc(S(=O)(=O)N[C@H](CC(=O)O)C(=O)N[C@@H](CCC(=O)O)C(=O)NCC(=O)N[C@@H](Cc2cccc(F)c2)C(=O)N[C@@H](Cc2c[nH]c3ccccc23)C(=O)N(C)[C@@H](CCC(=O)O)C(N)=O)cc1 [UBP032, Ts-dEGF(3F)WE(Me)-NH2] (Tos-[dD]EG[Phe(3-F)]W[NMeE]-NH2)    t
Cc1ccc(S(=O)(=O)N[C@H](CC(=O)O)C(=O)N[C@@H](CC(=O)O)C(=O)NCC(=O)N[C@@H](Cc2cccc(F)c2)C(=O)N[C@@H](Cc2c[nH]c3ccccc23)C(=O)N[C@@H](CCC(=O)O)C(N)=O)cc1 [UBP025, Ts-dDGF(3F)WE-NH2] (Tos-[dD]DG[Phe(3-F)]WE-NH2)    f

# input for lookup
Check this compound for inhibition at 10 µM at or above 3%: Cc1ccc(S(=O)(=O)N[C@H](CC(=O)O)C(=O)N[C@@H](CCC(=O)O)C(=O)NCC(=O)N[C@@H](Cc2cccc(Cl)c2)C(=O)N[C@@H](Cc2c[nH]c3ccccc23)C(=O)N[C@@H](CCC(=O)O)C(N)=O)cc1 [UBP034, Ts-dEGF(3Cl)WE-NH2] (Tos-[dD]EG[Phe(3-Cl)]WE-NH2)
t
